# assay_summary: DRUGMATRIX: Calcium Channel Type L, Dihydropyridine radioligand binding (ligand: [3H] Nitrendipine)
# Format: cell membranes, Rattus norvegicus, Wistar, Cerebral cortex, Membrane
# condition_summary: Not Active = under 50% inhibition at 10 µM
test_readout: IC50

Worked examples follow.
Challenge: Item under review: CC(C)N1CCN(c2ccc(OCC3COC(Cn4cncn4)(c4ccc(Cl)cc4Cl)O3)cc2)CC1 (stereo not given) . Reported IC50?
Response given: Not Active

Challenge: Item under review: NC[C@H]1CC[C@H](C(=O)O)CC1 . Reported IC50?
Response given: Not Active

Challenge: Item under review: CC(C)CN(C[C@@H](O)[C@H](Cc1ccccc1)NC(=O)O[C@H]1CCOC1)S(=O)(=O)c1ccc(N)cc1 . Reported IC50?
Response given: Not Active

Challenge: Item under review: CCOC(=O)N1CCC(=C2c3ccc(Cl)cc3CCc3cccnc32)CC1 . Reported IC50?
Response given: Not Active

Below: the item to evaluate.
Challenge: Item under review: CSc1ccc(/C=C2/C(C)=C(CC(=O)O)c3cc(F)ccc32)cc1 [SULINDAC SULFIDE] . Reported IC50?
Response given: Not Active

* * *

# experimental_system: Adenosine receptor A2a (Homo sapiens, UniProt P29274)
# Sequence (P29274 whole entry): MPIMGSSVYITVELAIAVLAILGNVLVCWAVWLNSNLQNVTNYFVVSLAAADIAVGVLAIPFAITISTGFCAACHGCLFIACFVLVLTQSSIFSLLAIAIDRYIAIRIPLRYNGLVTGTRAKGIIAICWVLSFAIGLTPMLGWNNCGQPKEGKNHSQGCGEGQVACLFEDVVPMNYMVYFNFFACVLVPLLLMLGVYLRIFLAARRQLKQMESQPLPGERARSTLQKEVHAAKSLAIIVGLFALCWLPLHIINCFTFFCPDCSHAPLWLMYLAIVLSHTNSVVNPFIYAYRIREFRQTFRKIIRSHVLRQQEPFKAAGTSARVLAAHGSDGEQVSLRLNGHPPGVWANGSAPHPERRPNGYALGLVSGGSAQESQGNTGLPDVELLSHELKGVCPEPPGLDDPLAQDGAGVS
# assay_summary: DRUGMATRIX: Adenosine A2A radioligand binding (ligand: […])
# Format: cell membranes, Membrane
# condition_summary: hek293; Not Active = under 50% inhibition at 10 µM
test_readout: IC50

Worked examples follow.
Challenge: Record lookup: for Adenosine receptor A2a (Homo sapiens, UniProt P29274), what IC50 belongs to CC(C)N1CCN(c2ccc(OCC3COC(Cn4cncn4)(c4ccc(Cl)cc4Cl)O3)cc2)CC1 (stereo not drawn) ?
Response given: Not Active

Challenge: Record lookup: for Adenosine receptor A2a (Homo sapiens, UniProt P29274), what IC50 belongs to CN(C)c1nc(N(C)C)nc(N(C)C)n1 ?
Response given: Not Active

Challenge: Record lookup: for Adenosine receptor A2a (Homo sapiens, UniProt P29274), what IC50 belongs to C[C@]12CCC(=O)C=C1CC[C@@H]1[C@@H]2CC[C@@]2(C)[C@H]1CC[C@]2(C)O ?
Response given: Not Active

Challenge: Record lookup: for Adenosine receptor A2a (Homo sapiens, UniProt P29274), what IC50 belongs to CCCCc1nc(Cl)c(CO)n1Cc1ccc(-c2ccccc2-c2nnn[nH]2)cc1 ?
Response given: Not Active

***
Challenge: Record lookup: for Adenosine receptor A2a (Homo sapiens, UniProt P29274), what IC50 belongs to C[C@]12CC[C@@H]3c4ccc(O)cc4CC[C@H]3[C@@H]1CCC2=O ?
Response given: Not Active

Challenge: Record lookup: for Adenosine receptor A2a (Homo sapiens, UniProt P29274), what IC50 belongs to Cc1nc2n(c(=O)c1CCN1CCC(c3noc4cc(F)ccc34)CC1)CCCC2 ?
Response given: Not Active

Challenge: Record lookup: for Adenosine receptor A2a (Homo sapiens, UniProt P29274), what IC50 belongs to CCC1(c2ccc(N)cc2)CCC(=O)NC1=O (stereo not drawn) [AMINOGLUTETHIMIDE] ?
Response given: Not Active

Challenge: Record lookup: for Adenosine receptor A2a (Homo sapiens, UniProt P29274), what IC50 belongs to CC(C)C(=O)Nc1ccc([N+](=O)[O-])c(C(F)(F)F)c1 [FLUTAMIDE] ?
Response given: Not Active
